What pIC50 was measured for each of the following?
# Tested Target: Human Cot (Homo sapiens (Human), UniProt P41279)
# Sequence (P41279 30-397): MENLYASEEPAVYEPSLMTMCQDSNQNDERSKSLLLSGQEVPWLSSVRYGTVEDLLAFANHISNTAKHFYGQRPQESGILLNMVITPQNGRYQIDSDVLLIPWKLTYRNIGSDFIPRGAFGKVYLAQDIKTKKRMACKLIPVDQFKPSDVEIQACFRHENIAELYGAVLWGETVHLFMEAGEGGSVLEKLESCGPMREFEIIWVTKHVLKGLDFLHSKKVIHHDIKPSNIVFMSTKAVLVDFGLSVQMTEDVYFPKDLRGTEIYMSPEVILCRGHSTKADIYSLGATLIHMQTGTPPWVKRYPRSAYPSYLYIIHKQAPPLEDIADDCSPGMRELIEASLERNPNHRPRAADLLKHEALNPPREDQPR
# Measurement Notes: High Throughput Cot Biochemical Assay
# Condition Context: IC50 HTRF, Cot HTRF (TR-FRET) biochemical assay
Friendly reminder that pIC50 comes from taking -log10 of the concentration in mol/L.

Challenge: Which pIC50 value belongs to CC(C)(C)N1CCC(n2cc([C@@H](Nc3cc(Cl)c4ncc(C#N)c(Nc5ccc(F)c(F)c5)c4c3)c3cccnc3)nn2)CC1 [Example 285] ?
Response given: 8.10

Challenge: Which pIC50 value belongs to Cc1nc(Cl)ccc1[C@H](Nc1cc(Cl)c2ncc(C#N)c(Nc3ccc(F)c(Cl)c3)c2c1)c1cn(C(C)C)nn1 [Example 294] ?
Response given: 8.05

Challenge: Which pIC50 value belongs to N#Cc1cnc2c(Cl)cc(NC(c3cccnc3)c3cn(C4CCNCC4)nn3)cc2c1Nc1ccc(F)c(Cl)c1 (stereo not shown) [Example 405] ?
Response given: 8.70

Challenge: Which pIC50 value belongs to CC(C)(C)CNc1c(C#N)cnc2c(C#N)cc(N[C@H](c3cn(C4(C(N)=O)CC4)nn3)c3cccc4ncccc34)cc12 [Example 575] ?
Response given: 9.00

Challenge: Which pIC50 value belongs to [2H][C@](Nc1cc(Cl)c2ncc(C#N)c(N[C@@H](CC#N)c3ccccc3)c2c1)(c1ccc(F)nc1)c1cn(C2CC2)nn1 [Example 128] ?
Response given: 6.16

Challenge: Which pIC50 value belongs to Cc1nc(F)ccc1[C@H](Nc1cc(Cl)c2ncc(C#N)c(NCC(C)(C)C)c2c1)c1cn(C(C)(C)CF)nn1 [Example 531] ?
Response given: 8.52

Challenge: Which pIC50 value belongs to N#Cc1csc([C@H](Nc2cc(Cl)c3ncc(C#N)c(Nc4ccc(F)c(Cl)c4)c3c2)c2cn(CCO)nn2)c1 [Example 333] ?
Response given: 8.52

* * *

# Tested on: TNFα
# Measurement Notes: Cot Monocyte TNFα Cell Based Assay
# Condition Context: Homo sapiens, Monocyte, read-out: EC50 TNF, LPS-stimulated human monocytes, TNFα
Parameter: pEC50
Friendly reminder that pEC50 comes from taking -log10 of the concentration in mol/L.

Challenge: Which pEC50 value belongs to CCC1(n2cc([C@@H](Nc3cc(Cl)c4ncc(C#N)c(NCC(C)(C)C)c4c3)c3cccc4c(=O)n(C)ccc34)nn2)CC1 [Example 756] ?
Response given: 7.59

Challenge: Which pEC50 value belongs to Cc1nc(F)ccc1[C@H](Nc1cc(Cl)c2ncc(C#N)c(NCC(C)(C)C)c2c1)c1cn(C2(C#N)CCC2)nn1 [Example 479] ?
Response given: 7.11

Challenge: Which pEC50 value belongs to Cn1ccc2c([C@H](Nc3cc(Cl)c4ncc(C#N)c(NCC(C)(C)C)c4c3)c3cn(C(C)(C)C)nn3)cccc2c1=O [Example 747] ?
Response given: 7.44

Challenge: Which pEC50 value belongs to CC(C)(C)CNc1c(C#N)cnc2c(Cl)cc(N[C@H](c3cn(C4(C(F)(F)F)CC4)nn3)c3csc4cnccc34)cc12 [Example 741] ?
Response given: 6.92

Challenge: Which pEC50 value belongs to Cc1nc(F)ccc1[C@H](Nc1cc(Cl)c2ncc(C#N)c(NCC(C)(C)C(F)(F)F)c2c1)c1cn(C(C)(C)C)nn1 [Example 715] ?
Response given: 7.04

Challenge: Which pEC50 value belongs to Cc1nc(F)ccc1[C@H](Nc1cc(F)c2ncc(C#N)c(NCC(C)(C)C)c2c1)c1cn(C2(C)CC2)nn1 [Example 488] ?
Response given: 7.10

Challenge: Which pEC50 value belongs to Cc1nc(F)ccc1[C@H](Nc1cc(Cl)c2ncc(C#N)c(NCC3(C)CCC3)c2c1)c1cn(C2(C(F)F)CC2)nn1 [Example 502] ?
Response given: 6.69

Challenge: Which pEC50 value belongs to CC1(C)COCC[C@H]1Nc1c(C#N)cnc2c(C#N)cc(N[C@H](c3cn(C4(C(F)(F)F)CC4)nn3)c3cccc4ncsc34)cc12 [Example 474] ?
Response given: 7.59

Challenge: Which pEC50 value belongs to Cc1nc(F)ccc1[C@H](Nc1cc(C#N)c2ncc(C#N)c(NCC(C)(C)C)c2c1)c1cn(C2(C(N)=O)CCC2)nn1 [Example 494] ?
Response given: 6.35

Challenge: Which pEC50 value belongs to CC(C)(C)CNc1c(C#N)cnc2c(Br)cc(N[C@H](c3cn(C4CC4)nn3)c3cccc4c3C(=O)NC4)cc12 [Example 78] ?
Response given: 6.48

Challenge: Which pEC50 value belongs to N#Cc1cnc2c(Cl)cc(N[C@@H](c3cccnc3)c3c[nH]nn3)cc2c1N[C@@H](CCO)c1ccccc1 [Example 178] ?
Response given: 6.03

Challenge: Which pEC50 value belongs to N#Cc1cnc2c(Cl)cc(N[C@H](c3cn(C4COC4)nn3)c3ccc(Cl)nc3Cl)cc2c1Nc1ccc(F)c(Cl)c1 [Example 322] ?
Response given: 6.43

Challenge: Which pEC50 value belongs to Cc1nc(F)ccc1[C@H](Nc1cc(Cl)c2ncc(C#N)c(N[C@@H]3CCOC3(C)C)c2c1)c1cn(C2(C(F)F)CC2)nn1 [Example 515] ?
Response given: 6.00

* * *

What pIC50 was measured for each of the following?
# Tested Target: Human Cot (Homo sapiens (Human))
# Measurement Notes: High Throughput Cot Biochemical Assay
# Condition Context: IC50 HTRF, Cot HTRF (TR-FRET) biochemical assay
Friendly reminder that pIC50 comes from taking -log10 of the concentration in mol/L.

Challenge: Which pIC50 value belongs to `CC(C)(C)CNc1c(C#N)cnc2c(Cl)cc(N[C@H](c3cn(C4(C(F)F)CC4)nn3)c3cccc4cnccc34)cc12` ?
Response given: 8.52

Challenge: Which pIC50 value belongs to `[2H]C([2H])([2H])C([2H])([2H])[C@H](Nc1c(C#N)cnc2c(Cl)cc(N[C@@]([2H])(c3ccc(F)nc3)c3cn(C4CC4)nn3)cc12)c1ccccc1` ?
Response given: 6.74

Challenge: Which pIC50 value belongs to `CC(C)(C)CNc1c(C#N)cnc2c(Cl)cc(N[C@@H](c3cccnc3)c3cn(C4COC4)nn3)cc12` ?
Response given: 8.22

Challenge: Which pIC50 value belongs to `CC(C)(C)CNc1c(C#N)cnc2c(Cl)cc(N[C@H](c3cn(C4(C(F)F)CC4)nn3)c3ccc(F)c4cnccc34)cc12` ?
Response given: 8.40

Challenge: Which pIC50 value belongs to `Cn1nccc1[C@H](Nc1cc(Cl)c2ncc(C#N)c(Nc3cnc(F)c(F)c3)c2c1)c1c[nH]nn1` ?
Response given: 8.05

Challenge: Which pIC50 value belongs to `CC(C)(C)CNc1c(C#N)cnc2c(C#N)cc(N[C@H](c3cn(C4(C(F)(F)F)CC4)nn3)c3csc4c3CCN(C3COC3)C4)cc12` ?
Response given: 8.70

Challenge: Which pIC50 value belongs to `Cc1ncccc1[C@H](Nc1cc(Cl)c2ncc(C#N)c(N[C@@H](CO)c3ccccc3)c2c1)c1c[nH]nn1` ?
Response given: 5.35

Challenge: Which pIC50 value belongs to `CC(C)n1cc([C@@H](Nc2cc(Cl)c3ncc(C#N)c(Nc4ccc(F)c(Cl)c4)c3c2)c2cncn2C)nn1` ?
Response given: 7.52

Challenge: Which pIC50 value belongs to `Cn1ccc2c([C@H](Nc3cc(Cl)c4ncc(C#N)c(NCC(C)(C)C)c4c3)c3cn(C4(C5CC5)CC4)nn3)cccc2c1=O` ?
Response given: 8.52

Challenge: Which pIC50 value belongs to `N#Cc1cnc2c(Cl)cc(N[C@H](c3cn(C4CCNCC4)nn3)c3cncs3)cc2c1Nc1ccc(F)c(Cl)c1` ?
Response given: 8.40

Challenge: Which pIC50 value belongs to Cc1nc(F)ccc1C(Nc1cc(Cl)c2ncc(C#N)c(NCC(C)(C)C)c2c1)c1cn(C)nn1 (stereo not shown) ?
Response given: 7.66

Challenge: Which pIC50 value belongs to `CC(C)(CNc1c(C#N)cnc2c(Cl)cc(N[C@H](c3cn(C4(C5CC5)CC4)nn3)c3cccc4ncccc34)cc12)C(F)(F)F` ?
Response given: 8.15

Challenge: Which pIC50 value belongs to `Cc1cncc2cccc([C@H](Nc3cc(Cl)c4ncc(C#N)c(NCC(C)(C)C)c4c3)c3cn(C4(C(F)(F)F)CC4)nn3)c12` ?
Response given: 7.39

* * *

What EC50 was measured for each of the following?
# System: TNFα
# Measurement Notes: Cot Monocyte TNFα Cell Based Assay
# Condition Context: Homo sapiens, Monocyte, read-out: EC50 TNF, LPS-stimulated human monocytes, TNFα

Challenge: Which EC50 value belongs to `CC(C)(C)CNc1c(C#N)cnc2c(Cl)cc(N[C@H](c3cn(C4CC4)nn3)c3cccn4nccc34)cc12` ?
Response given: 57 nM

Challenge: Which EC50 value belongs to Cc1nc(F)ccc1[C@H](Nc1cc(Cl)c2ncc(C#N)c(NC3CCOC3(C)C)c2c1)c1cn(C2(C(F)F)CC2)nn1 (stereo partly drawn) ?
Response given: 133 nM

Challenge: Which EC50 value belongs to `CC(C)(C)CNc1c(C#N)cnc2c(Cl)cc(N[C@H](c3cn(C4(C(F)(F)F)CC4)nn3)c3ccc(Cl)c4ncccc34)cc12` ?
Response given: 187 nM

Challenge: Which EC50 value belongs to `Cc1ncsc1[C@H](Nc1cc(C#N)c2ncc(C#N)c(NCC(C)(C)C)c2c1)c1cn(C2(C(F)F)CC2)nn1` ?
Response given: 65 nM

Challenge: Which EC50 value belongs to `Cc1nc(F)ccc1[C@H](Nc1cc(C#N)c2ncc(C#N)c(NCC(C)(C)C)c2c1)c1cn(Cc2c(F)cccc2F)nn1` ?
Response given: 32 nM

Challenge: Which EC50 value belongs to `Cc1ccc([C@H](Nc2cc(Cl)c3ncc(C#N)c(Nc4ccc(F)c(Cl)c4)c3c2)c2cn(COC(=O)C(C)(C)C)nn2)cn1` ?
Response given: 1560 nM
